The reported numbers originate from patent US20170233495A1.

test_target: human MMP9 (i.e. activated MMP9), catalytically active caspase-cleaved recombinant MMP9 (human, UniProt P14780 107-707)
Sequence (P14780 107-707): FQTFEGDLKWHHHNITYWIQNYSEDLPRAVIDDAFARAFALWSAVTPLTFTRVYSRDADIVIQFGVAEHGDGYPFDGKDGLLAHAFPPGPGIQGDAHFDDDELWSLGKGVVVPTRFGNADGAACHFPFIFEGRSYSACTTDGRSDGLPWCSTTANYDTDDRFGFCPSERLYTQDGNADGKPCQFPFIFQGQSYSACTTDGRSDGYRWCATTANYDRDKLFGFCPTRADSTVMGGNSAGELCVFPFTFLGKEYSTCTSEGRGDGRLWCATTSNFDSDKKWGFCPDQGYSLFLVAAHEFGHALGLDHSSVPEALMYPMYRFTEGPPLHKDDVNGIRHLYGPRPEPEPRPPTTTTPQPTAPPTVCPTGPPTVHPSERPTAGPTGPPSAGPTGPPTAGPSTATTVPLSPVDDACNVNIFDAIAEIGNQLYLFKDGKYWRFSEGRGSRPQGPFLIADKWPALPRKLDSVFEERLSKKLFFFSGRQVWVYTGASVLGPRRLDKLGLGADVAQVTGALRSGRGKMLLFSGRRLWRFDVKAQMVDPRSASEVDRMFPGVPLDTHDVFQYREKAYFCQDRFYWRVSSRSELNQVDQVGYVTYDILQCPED
protocol: cell-based or functional assay
Catalogue of binders with associated IC50 (nM), DQ-gelatin digestion, MMP9 assay
Kindly provide the numeric value in nM only, without the unit symbol.

Consider the reported IC50 (nM), DQ-gelatin digestion, MMP9 assay for these binders:
>>> experimental_value("F20-VH-GL1-V1-V9-V14/B03-VL-GL1c (antibody, human IgG4 S228P, V domains shown) VH: EVQLVESGGGLVQPGRSLRLSCAASGFTFNDYPMHWVRQAPGKGLEWVSGISSQSGSVGYAESVKGRFTISRDNAKNSLYLQMNSLRAEDTALYYCARDKIYYGSGSYDFYYYYGIDVWGQGTTVTVSS VL: SSELTQDPAVSVALGQTVRITCQGDSLRSYYASWYQQKPGQAPVVVIYGKNNRPSGIPDRFSGSSSGNTVSLTITGAQAEDEADYYCQSRDNIGNHRVVLFGGGTKLTVL")
3.16
>>> experimental_value("F20-VH-GL1/B08-VL-GL6c (antibody, human IgG4, V domains shown) VH: EVQLVESGGGLVQPGRSLRLSCAASGFTFNDYPMHWVRQAPGKGLEWVSGISSNSGSVGYADSVKGRFTISRDNAKNSLYLQMNSLRAEDTALYYCARDKIYYGSGSYDFYYYYGMDVWGQGTTVTVSS VL: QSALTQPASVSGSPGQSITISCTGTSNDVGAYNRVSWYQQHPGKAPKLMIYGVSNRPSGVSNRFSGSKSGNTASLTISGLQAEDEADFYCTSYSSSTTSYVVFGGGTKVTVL")
3.92
>>> experimental_value("F20-VH-GL1-V4-V9/B08-VL-GL6c (antibody, human IgG4 S228P, V domains shown, The light chain constant region is not tied to it; also called F20-VH/B08-VLc variant; F20-VH/B08-VLc) VH: EVQLVESGGGLVQPGRSLRLSCAASGFTFNDYPMHWVRQAPGKGLEWVSGISSRSGSVGYAESVKGRFTISRDNAKNSLYLQMNSLRAEDTALYYCARDKIYYGSGSYDFYYYYGMDVWGQGTTVTVSS VL: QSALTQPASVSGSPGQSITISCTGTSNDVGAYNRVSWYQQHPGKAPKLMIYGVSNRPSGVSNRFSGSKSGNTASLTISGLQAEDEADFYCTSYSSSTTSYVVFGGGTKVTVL")
0.97
>>> experimental_value("F20-VH-GL1-V4-V9-V14/B03-VL-GL1c (antibody, human IgG4 S228P, V domains shown) VH: EVQLVESGGGLVQPGRSLRLSCAASGFTFNDYPMHWVRQAPGKGLEWVSGISSRSGSVGYAESVKGRFTISRDNAKNSLYLQMNSLRAEDTALYYCARDKIYYGSGSYDFYYYYGIDVWGQGTTVTVSS VL: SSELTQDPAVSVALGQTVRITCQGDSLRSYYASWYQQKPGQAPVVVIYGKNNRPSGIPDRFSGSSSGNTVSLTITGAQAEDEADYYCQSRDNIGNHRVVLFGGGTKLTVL")
1.3
>>> experimental_value("F20-VH-GL1/B03-VL-GL1c (antibody, human IgG4, V domains shown) VH: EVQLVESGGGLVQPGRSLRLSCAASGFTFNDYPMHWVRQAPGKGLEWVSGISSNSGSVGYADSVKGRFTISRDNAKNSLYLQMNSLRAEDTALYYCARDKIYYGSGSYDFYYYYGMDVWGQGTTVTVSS VL: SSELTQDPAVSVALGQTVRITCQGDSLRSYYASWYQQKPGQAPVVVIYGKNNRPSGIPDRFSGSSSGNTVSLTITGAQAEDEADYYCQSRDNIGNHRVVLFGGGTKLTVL")
1.92

q: What does the data say about its IC50 (nM), DQ-gelatin digestion, MMP9 assay? Entry: F20-VH-GL1-V4-V9-V14/B08-VL-GL6c (antibody, human IgG4 S228P, V domains shown) VH: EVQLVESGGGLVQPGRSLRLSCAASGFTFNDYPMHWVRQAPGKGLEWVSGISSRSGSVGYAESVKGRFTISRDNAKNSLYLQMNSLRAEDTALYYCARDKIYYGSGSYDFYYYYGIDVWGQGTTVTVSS VL: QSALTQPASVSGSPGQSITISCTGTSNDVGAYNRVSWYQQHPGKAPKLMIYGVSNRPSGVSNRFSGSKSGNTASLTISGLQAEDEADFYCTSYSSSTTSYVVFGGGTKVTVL
a: 2.92
